Target: Luciferin 4-monooxygenase (Photinus pyralis)
Experiment: qHTS profiling assay for firefly luciferase inhibitor/activator using purifed enzyme and Km concentrations of substrates (counterscreen for miR-21 project); further: nearly all actives have a fitted effect of over 55% in size
Conditions: purified FLuc, luminescence inhibition; series mostly up to 57.5 µM
The whole screen tested about 360,000 compounds, of which about 25,000 (6.9%) were called active. Roughly 9% stayed inconclusive and do not appear here. The call rests on the fitted dose curve; in most records, active means well fitted inhibition curve with a large enough effect; inconclusive means small, poorly fitted or top-dose-only effect; inactive means flat fitted curve, though single readings scatter. The list comes from a sample in which actives are over-represented; it also holds close analogues and randomly drawn compounds.
API: response.call in active, inactive

IN: I would be grateful if you could indicate the recorded call for "COc1ccc(C(=O)CCc2ccccc2O)c(OC)c1" .
OUT: active

IN: I would be grateful if you could indicate the recorded call for "CC(C)(Oc1ccc(Cl)cc1)C(=O)OCC(=O)NCCc1ccc(S(N)(=O)=O)cc1" .
OUT: inactive

IN: I would be grateful if you could indicate the recorded call for "Cc1cc(C)nc(NS(=O)(=O)c2ccc(NC(=O)c3cc(=O)c4ccc(C)c(C)c4o3)cc2)n1" .
OUT: inactive
